Recorded fold change of 2-Phenylethylamine concentration values for a group of molecules are listed next.
Test system: Ruminococcus gnavus DSM 108212
procedure.details: fold change of 2-Phenylethylamine concentration vs plate DMSO controls (fold change (ratio)); higher = more amine produced, active = hit call of the paper (significant change in both replicates, either direction)
assay.context: incubation time: 27 h, anaerobic, 37 °C
Structures can show the parent of a compound that is named as a salt.
Number, no unit, nothing else.

NS(=O)(=O)c1cc2c(cc1Cl)NC(C(Cl)Cl)NS2(=O)=O (centres undefined) [Trichlormethiazide] (20 µM) : 1.01
CCN(CC)CCOC(=O)C(c1ccccc1)C1CCCCC1 (centres undefined) [Drofenine hydrochloride] (20 µM) : 0.921
COc1ccccc1OCC(O)COC(N)=O (centres undefined) [Methocarbamol] (20 µM) : 0.95
COc1cc(Cc2cnc(N)nc2N)cc(OC)c1OC [Trimethoprim] (20 µM) : 0.84

In: What value of measured fold change of 2-Phenylethylamine concentration is listed for CC(C)NC[C@H](O)COc1cccc2ccccc12 [(S)-(-)-Propranolol hydrochloride] (20 µM) ?
Out: 1.02

In: What value of measured fold change of 2-Phenylethylamine concentration is listed for Cn1c(=O)c2c(ncn2CC(=O)O)n(C)c1=O [Acefylline] (20 µM) ?
Out: 0.886

In: What value of measured fold change of 2-Phenylethylamine concentration is listed for CC(=O)Nc1ccc(OCC(O)CNC(C)C)cc1 (centres undefined) [Practolol] (20 µM) ?
Out: 1.02

In: What value of measured fold change of 2-Phenylethylamine concentration is listed for O=c1[nH]c(=O)n([C@H]2C[C@H](O)[C@@H](CO)O2)cc1F [Floxuridine] (20 µM) ?
Out: 0.884

In: What value of measured fold change of 2-Phenylethylamine concentration is listed for CC(=O)CC(c1ccccc1)c1c(O)c2ccccc2oc1=O (centres undefined) [Warfarin] (20 µM) ?
Out: 0.758

---

System: Klebsiella aerogenes DSM 30053
procedure.details: growth (OD595) fold change vs plate DMSO controls (fold change (ratio)); higher = more growth
assay.context: incubation time: 27 h, anaerobic, 37 °C
outcome.measure: growth
Number, no unit, nothing else.

// below: answered molecules
O=c1oc2ccccc2c(O)c1Cc1c(O)c2ccccc2oc1=O [Dicumarol] (20 µM) : 1.04
COc1cc(N)cn[n+]1-c1ccccc1 [Amezinium metilsulfate] (20 µM) : 1.08
CCn1cc(C(=O)O)c(=O)c2cc(F)c(N3CCN(C)CC3)cc21 [Pefloxacin] (20 µM) : 0.198
O=C1c2c(O)cccc2Cc2cccc(O)c21 [Anthralin] (20 µM) : 1.03

In: Notebook entry, Klebsiella aerogenes DSM 30053 assay: growth of CC(C)(Oc1ccc(CCNC(=O)c2ccc(Cl)cc2)cc1)C(=O)O [Bezafibrate] (20 µM) = ?
Out: 0.993

---

Recorded growth values for a group of compounds are listed next.
Tested on: Escherichia coli IAI1
procedure.details: growth (OD595) fold change vs plate DMSO controls (fold change (ratio)); higher = more growth
assay.context: incubation time: 27 h, anaerobic, 37 °C
Where a name gives a salt, the structure may show the parent alone.
Number, no unit, nothing else.

// below: answered compounds
CCC(=O)OCC(=O)[C@@]1(OC(=O)CC)[C@@H](C)C[C@H]2[C@@H]3CCC4=CC(=O)C=C[C@]4(C)[C@@]3(Cl)[C@@H](O)C[C@@]21C [Beclomethasone dipropionate] (20 µM) : 0.997
CCOC(=O)[C@H](CCc1ccccc1)N[C@@H](C)C(=O)N1Cc2ccccc2C[C@H]1C(=O)O [Quinapril hydrochloride] (20 µM) : 1.02
COC(=O)C1=C(C)NC(C)=C(C(=O)OCCN2CCN(C(c3ccccc3)c3ccccc3)CC2)C1c1cccc([N+](=O)[O-])c1 (stereo not given) [Manidipine Dihydrochloride] (20 µM) : 1.01
CN[C@@H]1[C@H](O[C@H]2[C@H](O[C@H]3[C@H](O)[C@@H](O)[C@H](N=C(N)N)[C@@H](O)[C@@H]3N=C(N)N)O[C@@H](C)[C@]2(O)C=O)O[C@@H](CO)[C@H](O)[C@H]1O [Streptomycin sulfate] (20 µM) : 0.989

In the following, a different compound is considered.
In: What value of measured growth is listed for CC(=O)c1cc2cccc(OCC(O)CNC(C)C)c2o1 (stereo not given) [Befunolol] (20 µM) ?
Out: 1.1
